compounds and their reported pIC50
# System: A549 cells
# assay-overview: Antiproliferative activity, SRB assay
# Type: cell-based, human
# assay-conditions: Homo sapiens, A549; 72 h exposure, SRB, mean ± SD; n.a = no activity in concentration of 5, 25, 125, 625 μM
# Description: Human biphenotypic B myelomonocytic leukemia MV4-11, human colon cancer LoVo cell line and normal mouse fibroblast BALB/3T3 cells were obtained from American Type Culture Collection (Rockville, Maryland, USA), human lung carcinoma A549 cells were obtained from European Collection of Authenticated Cell Cultures (UK). […]
pIC50: −log10 of the molar value.
measured-endpoint: pIC50

- C=CC(C)(CCCC(C)CCCC(C)CCCC(C)C)CC(=O)O (centres unmarked): 4.31
- CC(C)CCCC(C)CCCC(C)CCC[C@]1(C)CC(=O)O[C@@H]1CCl (stereo in doubt): 3.42
